Test system: HCV sub-genomic replicon (I377/NS3-3') in HuH-7 hepatoma cells (GS4.3)
Assay: Quantitation by ELISA of NPTII in the HCV sub-genomic replicon, GS4.3
Assay type: cell-based
Details: Hepatitis C virus, GS4.3 replicon cells, 72 h
EC50 by entry:

MOLECULAR STRING	TARGET SYSTEM	EC50
CC[C@@H]1C[C@@]12NC(=O)[C@@H]1C[C@H](CN1C(=O)[C@@H](NC(=O)OC(C)(C)C)C(C)(C)C)Oc1nc3ccccc3n1C/C=C\CCCC1(CC1)S(=O)(=O)NC2=O	HCV sub-genomic replicon (I377/NS3-3') in HuH-7 hepatoma cells (GS4.3)	> 1000 nM
CC[C@@H]1C[C@@]12NC(=O)[C@@H]1C[C@H](CN1C(=O)[C@@H](NC(=O)OC(C)(C)C)C(C)(C)C)Oc1nc3ccccc3n1CCCCCCCC1(CC1)S(=O)(=O)NC2=O	HCV sub-genomic replicon (I377/NS3-3') in HuH-7 hepatoma cells (GS4.3)	> 1000 nM
CC[C@@H]1C[C@@]12NC(=O)[C@@H]1C[C@H](CN1C(=O)[C@@H](NC(=O)OC(C)(C)C)C(C)(C)C)Oc1nc3ccccc3n1CCC/C=C\CCC1(CC1)S(=O)(=O)NC2=O	HCV sub-genomic replicon (I377/NS3-3') in HuH-7 hepatoma cells (GS4.3)	> 1000 nM
